ASSAY READOUT: melting point

These solved cases illustrate the format of a correct answer.
> print(dat)
                                   compound       reported
1  CNC(=O)c1cc2c(nc(C)n2C)c(O)c1CC[C@@H](O)c1ccccc1  247 to 249 °C
2  O=C(Nc1ccc(Br)c(C(F)(F)F)c1)c1ccccc1NCc1ccncc1  123 to 124 °C
3  COc1ccc(S(=O)(=O)C2(C(=O)NO)CCN(Cc3ccc(-c4cccs4)cc3)CC2)cc1         166 °C
4  COc1ccc(C[C@H](NC(=O)OCc2ccccc2)C(=O)O)cc1  106 to 108 °C

Query string: Name the recorded melting point for `CCOC(=O)N1CCC(Nc2ccc(Cl)cc2C(=O)c2ccccc2F)CC1` .
Result string: 112 to 114 °C

Query string: Also `CCOCc1nc2c(N)nc3c(c2n1CCCCCS(N)(=O)=O)CCCC3` , if possible.
Result string: 203 to 205 °C

---

ASSAY READOUT: melting point

> print(dat)
                         compound.structure       reported
1  COc1ccc(CNC(=O)C23CC4CC(CC(C4)C2)C3)cc1OC  120 to 122 °C
2        CS(=O)(=O)c1ccc(Oc2ccc(C#N)cc2)cc1  127 to 128 °C
3  CC(C)c1cc(C(=O)Nc2ccc(C(=O)O)cc2)[nH]c1C(C)C         230 °C
4                        Cc1csc2c(C=O)ncn12  172 to 175 °C
5                 O=C(O)c1cc(Cl)c2cccnc2c1O  285 to 287 °C

Query string: Param item = `Cc1ccc(-c2cc3ccc(C(=O)O)cc3o2)cc1` ; retrieve measured melting point.
Result string: 270 to 272 °C

Query string: Same question, `CCCc1n[nH]c(=O)c2c(C)ncn12` this time
Result string: 168 to 170 °C

Query string: Then what about the molecule `CC(=O)Oc1ccc2cccc(OS(=O)(=O)C(F)(F)F)c2n1` ?
Result string: 90 °C

Query string: Quick one: `COC(=O)c1c(F)c(F)c(NCc2ccccc2)c(F)c1F`
Result string: 96 to 97 °C

Query string: Also `O=c1nc(NCCCOc2cccc(CN3CCCCC3)c2)c2ccccc2[nH]1` , if possible.
Result string: 219 to 221 °C

Query string: Follow-up item: `Cc1ncn(-c2ccc(N3C[C@H](CO)OC3=O)cc2F)n1`
Result string: 190 to 192 °C

---

The following compounds are listed with their measured melting point values.

// known answers, use as guide
> print(dat)
                                compound       reported
1      Cc1ccc(Oc2ccc(-n3cccc3)cc2)c(O)c1    95 to 96 °C
2  C#CCCCCCCOC(=O)COc1ccc(F)c(C(N)=O)c1F  130 to 132 °C

Query string: State the recorded melting point for this entry: CCCCCCCCC1C=CC(/C=C(\C)c2ccc(C(=O)O)o2)=C2N=C3CCCCC3=C21 (centres undefined)
Result string: 160 to 162 °C

Query string: Further, for CC(C)(C)OC(=O)c1ncn2c1C1C=CCN1C(=O)c1c(Cl)cccc1-2 (centres undefined) ?
Result string: 227 to 229 °C

Query string: Another compound: `COc1ccc(C(=O)Nc2ccccc2S(C)(=O)=O)cc1OC1CCCC1`
Result string: 119 to 121 °C

Query string: And what about the compound `CCOC(=O)c1cc2cc(-c3ccccc3OC)ccc2nn1` ?
Result string: 143 to 145 °C

Query string: How about `Oc1cnccc1CCCOc1cccnc1Oc1ccccc1` ?
Result string: 163 to 165 °C

Query string: Now the same for COC(Cc1ccc(OCCc2nc(C(C)(C)C)oc2C)c2ccccc12)C(=O)O (centres undefined)
Result string: 141 to 143 °C

Query string: And then Cn1c(COc2ccc(CC3SC(=O)NC3=O)cc2)nc2ccc(Oc3ccc(NC(=S)Nc4ccccc4)cc3)cc21 (centres undefined) , what is it?
Result string: 130 to 131 °C

---

Here, each record is paired with measured melting point data.

Example entries begin here.
> print(dat)
                                   molecule       reported
1  Cc1ccc(NC(=O)c2cn(-c3ccccc3)c3ccccc3c2=O)nc1  248 to 250 °C
2  CC1(C)C(=O)N(c2ccc(C#N)c(C(F)(F)F)c2)C(=O)N1CC1CC1CN1C(=O)N(c2ccc(C#N)c(C(F)(F)F)c2)C(=O)C1(C)C (stereo not drawn)  178 to 180 °C
3  O=C(Nc1c(C(O)(C(F)(F)F)C(F)(F)F)ccc2ccccc12)c1ccco1  228 to 229 °C
4  CC(C)(C)OC(=O)N1CCC(Oc2cccc3[nH]ncc23)C1 (stereo not drawn)  196 to 198 °C

Continue with the molecule presented below.
Query string: I would be grateful if you could share the reported melting point for `O=c1oc(-c2ccccc2)nc2cccc(F)c12` .
Result string: 162 to 164 °C

---

Overview of recorded melting point for various compounds

Worked cases, answers included:
> print(dat)
                                   compound  assay.readout       reported
1  C=C(C)C(=O)OCCCCCCOc1ccc(/C=C/C(=O)OC)cc1  melting point    45 to 50 °C
2  Cc1ccc(C2OCCn3ccc(=O)c(O)c32)cc1 (stereo not given)  melting point  210 to 218 °C
3        CC(C)Cn1c(=O)n(C)c(=O)c2c1ncn2CCCO  melting point  135 to 137 °C
4  COc1cccc(C(=O)Nc2nnn[nH]2)c1[N+](=O)[O-]  melting point         271 °C
5  Cc1cc(Br)cnc1CCCCNc1ncc(Cc2ccc3c(c2)OCO3)c(=O)[nH]1  melting point  145 to 146 °C

Query string: What does the data say about its melting point? Entry: `CCNC(=O)N1Cc2c(-c3ccc(F)cc3)ncn2-c2ccccc21`
Result string: 196 to 200 °C

Query string: Item: `c1ccc2c(c1)NCCc1nccn1-2`
Result string: 119 to 122 °C

Query string: Next record, please: CCC1(C)OC(c2ccc(S(N)(=O)=O)cc2)=C(c2ccsc2)C1=O (stereo not given)
Result string: 120 to 121 °C

Query string: Would you mind doing CC1(C)Oc2ccc(C#N)cc2C(Sc2ccccn2)C1O (stereo not given) as well?
Result string: 101 to 103 °C

Query string: Here is the next compound: Cc1cc(SC2=C(O)CC(CCc3ccoc3)(C(C)C)OC2=O)c(C(C)(C)C)cc1CO (stereo not given)
Result string: 62 to 70 °C

---

Entries and their melting point

Query string: What does the record list as melting point for CCc1ccccc1OCC(C)NC(=O)C(C#N)C(C)(C)C (stereo not given) ?
Result string: 94 to 97 °C

Query string: Thanks! And CC(C)(C)NCC(O)COc1ccc(-c2nc(C#N)c[nH]2)cc1 (stereo not given) ?
Result string: 174 to 177 °C

Query string: Next record, please: `Cc1nc(Cl)c2ncn(-c3ccc(C(C)C)cc3Br)c2n1`
Result string: 49 to 52 °C

Query string: Try NC(=O)CCNC(=O)C1CCCN1C(=O)OCc1ccccc1 (stereo not given) next.
Result string: 151 to 152 °C

Query string: Continue with Cc1cccc(NC(=O)NC2N=C(C3CC3)c3cccc(C)c3N(CC(=O)C3CCCCC3)C2=O)c1 (stereo not given)
Result string: 144 °C

Query string: Next entry: `CC(C)(C)OC(=O)c1ccc(C(=O)NS(=O)(=O)c2ccc(Cl)cc2)cc1`
Result string: > 300 °C

---

ASSAY READOUT: melting point

Solved cases (3 shown):
> print(dat)
                                   compound  assay.readout       reported
1           CC(=NOCCO)c1cn(C)c(-c2ccccc2)n1  melting point  133 to 135 °C
2  COc1ccc(C=C2c3ccccc3CCc3ccccc32)cc1NS(C)(=O)=O  melting point         192 °C
3          Cc1c(C)c(C(=O)O)c(C)c(C)c1C(=O)O  melting point       > 300 °C

Query string: I'd like to know its melting point. The compound in question is Cc1c(-c2ccc(O)cc2)n(Cc2ccc(OCCN3C(C)CCCC3C)cc2)c2ccc(O)cc12 (stereo not given)
Result string: 114 to 121 °C

Query string: Consider next the compound O[C@H]1CC[C@H](Oc2cccc3onc(OCC4CCN(CC5(O)CCOCC5)CC4)c23)C1 (relative stereo) in the same way.
Result string: 147 °C

Query string: Entry to check: `Cc1ccc(NC(=O)c2cc(C#N)cc(C)n2)nc1`
Result string: 196 °C

Query string: Also `O=S1(=O)NCN(C2CC2)c2cc(F)c(Cl)cc21` ?
Result string: 155 to 158 °C

Query string: Follow-up item: CC(O)C#CC1(O)C(C)C=CCC1(C)C (stereo not given)
Result string: 101 to 104 °C

Query string: Would you mind doing `COc1ccc(CCNC(=O)OC(C)(C)C)cc1O` as well?
Result string: 100 to 101 °C

Query string: Lookup `CCN(CC)C(=O)CCCOc1ccc(Oc2ccccc2)cc1`
Result string: 73 to 74 °C
